Values compiled from the supplement of paper PMC10567573.

B1: TIA1 (parent)
chain: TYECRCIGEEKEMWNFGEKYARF

# Variants of: B1
# Assay Name: protein stability index of a GFP-peptide fusion (GPS, HEK-293T) (PSI 1-6); higher = more stable;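 note: lentivirally expressed fusions sorted by FACS into six bins by GFP to DsRed ratio, PSI derived from sequencing read proportions per bin multiplied by bin number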
# Details: c terminus: native
Quantity Measured: protein stability index
API doc: respond with a numeric literal and nothing else, no unit.

>>> print(df.to_string())
   variant_description        quantity_measured  numeric_value
0                  Y2C  protein stability index            3.3
1                 E10P  protein stability index           2.12
2                  E9G  protein stability index           2.09
3                 N15H  protein stability index           2.33
4                 K19V  protein stability index           1.76
5                  G8N  protein stability index           2.28
6                  Y2D  protein stability index           4.27
7                 W14H  protein stability index           2.49

Let us examine a further case.
Query block: What measured protein stability index goes with G8S ?
Result block: 1.98
